tested on: MDA-MB-436; assay: Antiproliferative activity against human MDA-MB-436 cells assessed as decrease in cell viability after 24 hrs by MTT assay; type: functional, cell-based; settings: MDA-MB-436, 24 h
observed-property: IC50

INSERT INTO measurements (compound, assay_result) VALUES
  ('COc1ccccc1C(=O)NC(CC(=O)O)c1ccccc1 (stereo unspecified)', '> 100 µM'),
  ('COc1ccc(C(=O)NC(CC(=O)O)c2ccc(C(C)(C)C)cc2)cc1 (stereo unspecified)', '> 100 µM'),
  ('O=C(O)CC(NS(=O)(=O)c1cccc([N+](=O)[O-])c1)c1ccccc1 (stereo unspecified)', '> 100 µM'),
  ('O=C(O)CC(NS(=O)(=O)c1ccccc1)c1ccccc1F (stereo unspecified)', '> 100 µM'),
  ('O=C(O)CC(NS(=O)(=O)c1cccc([N+](=O)[O-])c1)c1ccc(Cl)cc1Cl (stereo unspecified)', '> 100 µM'),
  ('O=C(O)CC(NC(=O)c1cccc(Br)c1)c1ccccc1 (stereo unspecified)', '> 100 µM');
